targetEntity: T1, recombinant mf IL1RAP aa21-367 (cynomolgus monkey (Macaca fascicularis), UniProt A0A2K5X5J5 21-367)
T1 construct: also called cynomolgus monkey IL1RAP; cyno IL1RAP
T1 sequence: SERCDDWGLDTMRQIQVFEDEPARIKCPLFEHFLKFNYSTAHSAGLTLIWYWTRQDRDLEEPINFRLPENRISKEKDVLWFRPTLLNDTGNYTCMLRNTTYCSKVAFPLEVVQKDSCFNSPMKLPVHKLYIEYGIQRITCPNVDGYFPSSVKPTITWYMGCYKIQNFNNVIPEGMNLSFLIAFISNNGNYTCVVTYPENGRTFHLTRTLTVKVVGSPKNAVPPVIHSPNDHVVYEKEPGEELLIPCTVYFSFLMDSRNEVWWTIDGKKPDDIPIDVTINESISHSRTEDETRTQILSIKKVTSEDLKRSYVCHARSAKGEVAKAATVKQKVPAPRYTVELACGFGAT
assaySummary: binding ELISA, coated recombinant mf IL1RAP aa21-367
observedProperty: IC50 (µg/mL)
Quick note: give the figure in µg/mL, leave out the unit.

// field: IC50; key: h48D2 VH1:VL5 (antibody, human IgG1, kappa, L234A L235A, V domains shown, Humanized; also called VL5:VH1) VH: EVQLEESGGGLVKPGGSLRLSCAASGPSLSHFDITWVRQAPGKGLEWVSTISPGVSTYYASWAKSRFTISRDNSKNTLYLQMNSLRAEDTAVYYCARGGVGSSWKAFDLWGRGTLVTVSS VL: APVLTQSPATLEASVGDRVTITCQASESISTALAWYQQKPGQPPKLLIYKASTLPSGVPSRFSGSGSGTEFTLTISDLESDDAATYYCQQGFSSGNVHNAFGGGTEVVVKR ; value = 0.0242

// field: IC50; key: h48D2 VH2:VL4 (antibody, human IgG1, kappa, L234A L235A, V domains shown, Humanized; also called VL4:VH2) VH: EVQLVESGGALVQPGGSLRLSCIVSGPSLSHFDITWFRQAPGKGLEWVATISPGVSTYYASWAKSRFTISTDTSKNTLFLQMDSLRAEDTAVYYCARGGVGSSWKAFDLWGPGTLVTVSS VL: ELVMTQSPSSVSASVGDRVTITCQASESISTALAWYQQKPGKAPKLLIYKASTLPSGVPSRFSGSGSGTDFTLTINSLQPEDFATYYCQQGFSSGNVHNAFGGGTKVEIKR ; value = 0.0312
